# assay-remarks: Inhibition of interleukin-23 binding to rat interleukin-23 receptor incubated for 2 hrs by competitive binding ELISA
pIC50: −log10 of the molar value. *1 amine or outer side, *2 acyl side, *3 side chain or, on linkers, in order; H or OH if unused. Where a SMILES comes first, the peptide text is derived from it. Bridges are numbered along the chain shown (N, C = ends). [ ]: non-standard residue; d: D form. Abu(4-yl) = O=C([C@H](CC[*:3])N[*:1])[*:2]; 2Nal = N[C@@H](Cc1ccc2ccccc2c1)C(=O)O; AEF = NCCOc1ccc(C[C@H](N)C(=O)O)cc1; αMeK = C[C@](N)(CCCCN)C(=O)O
measure: pIC50

These solved cases illustrate the format of a correct answer.
CC(=O)N[C@@H](CS)C(=O)N[C@@H](CCC(N)=O)C(=O)N[C@H](C(=O)N[C@@H](Cc1c[nH]c2ccccc12)C(=O)N[C@@H](CCC(N)=O)C(=O)N[C@H](C(=O)N[C@@H](Cc1ccc(O)cc1)C(=O)N[C@@H](Cc1c[nH]c2ccccc12)C(=O)N[C@@](C)(CC(C)C)C(=O)N[C@@H](CCC(=O)O)C(=O)N[C@@H](CC(N)=O)C(=O)NCC(N)=O)C(C)(C)S)[C@@H](C)O: 6.00 to 7.00
CC(=O)N[C@H](C(=O)N[C@@H](CCC(N)=O)C(=O)N[C@H](C(=O)N[C@@H](Cc1c[nH]c2ccccc12)C(=O)N[C@@H](CCC(N)=O)C(=O)N[C@H](C(=O)N[C@@H](Cc1ccc(O)cc1)C(=O)N[C@@H](Cc1cccc2ccccc12)C(=O)N[C@@](C)(CCCN)C(=O)N[C@@H](CCC(=O)O)C(=O)N[C@@H](CC(N)=O)C(=O)NCC(N)=O)C(C)(C)S)[C@@H](C)O)C(C)(C)S: 6.00 to 7.00
C[C@@H](O)[C@H](NC(=O)[C@H](CCC(N)=O)NC(=O)[C@@H](N)CS)C(=O)N[C@@H](Cc1c[nH]c2ccccc12)C(=O)N[C@@H](CCC(N)=O)C(=O)N[C@@H](CS)C(=O)N[C@@H](Cc1ccc(O)cc1)C(=O)N[C@@H](Cc1c[nH]c2ccccc12)C(=O)N[C@@H](CCCN)C(=O)N[C@@H](CN)C(=O)N[C@@H](Cc1ccccc1)C(=O)NCC(=O)NCCOCC(=O)N[C@H](CCCCN)C(N)=O: 6.56
CC(=O)NCCCC[C@](C)(NC(=O)[C@H](Cc1ccc2ccccc2c1)NC(=O)[C@H](Cc1ccc(OCCNC(C)=O)cc1)NC(=O)[C@@H]1CSCC[C@H](NC(C)=O)C(=O)N[C@@H](CCC(N)=O)C(=O)N[C@@H]([C@@H](C)O)C(=O)N[C@@H](Cc2c[nH]c3ccccc23)C(=O)N[C@@H](CCC(N)=O)C(=O)N1)C(=O)N[C@@H](CCC(=O)O)C(=O)N[C@@H](CC(N)=O)C(=O)N[C@@H](CCC(N)=O)C(N)=O (Ac-[Abu(4-yl)]QTWQC[AEF](Ac)[2Nal][αMeK](Ac)ENQ-NH2; thioether 1-6): > 8.00

## Input May I ask what pIC50 has been recorded for CC(=O)NCCCC[C@H](NC(=O)[C@H](CCC(C)C)NC(=O)[C@H](Cc1ccc2ccccc2c1)NC(=O)[C@H](Cc1ccc(OCCN)cc1)NC(=O)[C@@H]1CSCC[C@H](NC(C)=O)C(=O)N[C@@H](CCC(N)=O)C(=O)N[C@@H]([C@@H](C)O)C(=O)N[C@@H](Cc2c[nH]c3ccccc23)C(=O)N[C@@H](CCC(N)=O)C(=O)N1)C(=O)N[C@@H](CC(N)=O)C(=O)NCCC(N)=O ?
## Output > 8.00

## Input May I ask what pIC50 has been recorded for COc1ccc(C[C@H](NC(=O)[C@H]2NC(=O)[C@H](CCC(N)=O)NC(=O)[C@H](Cc3c[nH]c4ccccc34)NC(=O)[C@H]([C@@H](C)O)NC(=O)[C@H](CCC(N)=O)NC(=O)[C@@H](NC(C)=O)CCSC2(C)C)C(=O)N[C@@H](Cc2ccc3ccccc3c2)C(=O)N[C@@](C)(CCCCN)C(=O)N[C@@H](CCCCNC(C)=O)C(=O)N[C@@H](CC(N)=O)C(=O)NCC(N)=O)cc1 ?
## Output 6.00 to 7.00

## Input May I ask what pIC50 has been recorded for CC(=O)NCCCC[C@H](NC(=O)[C@](C)(CCCCNC(C)=O)NC(=O)[C@H](Cc1ccc2ccccc2c1)NC(=O)[C@H](Cc1ccc(OCCNC(C)=O)cc1)NC(=O)[C@@H]1CSCC[C@H](NC(C)=O)C(=O)N[C@@H](CCC(N)=O)C(=O)N[C@@H]([C@@H](C)O)C(=O)N[C@@H](Cc2c[nH]c3ccccc23)C(=O)N[C@@H](CCC(N)=O)C(=O)N1)C(=O)N[C@@H](CC(N)=O)C(=O)NCC(N)=O ?
## Output > 8.00

## Input May I ask what pIC50 has been recorded for COc1ccc(C[C@H](NC(=O)[C@@H]2CSCC[C@H](NC(C)=O)C(=O)N[C@@H](CCC(N)=O)C(=O)N[C@@H]([C@@H](C)O)C(=O)N[C@@H](Cc3c[nH]c4ccccc34)C(=O)N[C@@H](CCC(N)=O)C(=O)N2)C(=O)N[C@@H](Cc2c[nH]c3ccccc23)C(=O)N[C@@](C)(CCCCN)C(=O)N[C@@H](CCCCNC(C)=O)C(=O)N[C@@H](CC(N)=O)C(=O)NCC(N)=O)cc1 ?
## Output 7.60 to 8.00

## Input May I ask what pIC50 has been recorded for CC(=O)N[C@H](C(=O)N[C@@H](CCC(N)=O)C(=O)N[C@H](C(=O)N[C@@H](Cc1c[nH]c2ccccc12)C(=O)N[C@@H](CCC(N)=O)C(=O)N[C@H](C(=O)N[C@@H](Cc1ccc(O)cc1)C(=O)N[C@@H](Cc1ccc2ccccc2c1)C(=O)N[C@@](C)(CCCN)C(=O)N[C@@H](CCC(=O)O)C(=O)N[C@@H](CC(N)=O)C(=O)NCC(N)=O)C(C)(C)S)[C@@H](C)O)C(C)(C)S ?
## Output 6.00 to 7.00

## Input May I ask what pIC50 has been recorded for CC(=O)N[C@@H](CS)C(=O)N[C@@H](CCC(N)=O)C(=O)N[C@H](C(=O)N[C@@H](Cc1c[nH]c2ccccc12)C(=O)N[C@@H](CCC(N)=O)C(=O)N[C@@H](CS)C(=O)N[C@@H](Cc1ccc(O)cc1)C(=O)N[C@@H](Cc1c[nH]c2ccccc12)C(=O)N[C@@H](CCC(C)C)C(=O)N[C@@H](CCC(=O)O)C(=O)N[C@@H](CC(N)=O)C(=O)N[C@@H](CCC(=O)O)C(N)=O)[C@@H](C)O ?
## Output 6.00
